Target: Alpha-bungarotoxin (Bungarus multicinctus)
Assay: alpha-bungarotoxin binders on microarray, profiling panel, artefact control for SMM control protein annotation, biochemical, small-molecule microarray, Alexa647 label, 635/667 nm fluorescence (AID 1117)
Settings: alpha-BTX-A647 binding fluorescence, higher = more signal
// composite z-score lookup, one value per entry
ENDPOINT NAME: composite z-score

* COC(=O)[C@H](Cc1ccccc1)N1CC(C)(OC)O[C@@H](Cc2ccccc2)[C@H]1/C=C/C1CC1 (stereo partly specified) | 0.2
* COCCOC(=O)N1C(=O)[C@@]2(c3cc(C#CCCO)ccc31)[C@H](c1ccc(O)cc1)N1[C@H](c3ccccc3)[C@H](c3ccccc3)OC(=O)[C@H]1[C@@H]2C(=O)NC[C@H](O)c1ccccc1 | 0.367
* C=C(/C=C\CNS(=O)(=O)c1ccc(C)cc1)[C@H](O)[C@H]1CCCN1S(=O)(=O)c1ccccc1[N+](=O)[O-] | 0.293
* CCCCCN1CC=CC23O[C@@H]4/C=C\CCCOC(=O)C4[C@H]2C(=O)N(CCO)[C@@H]3C1=O (stereo partly specified) | 0.227
* COC(=O)C(CC#Cc1ccc2c(c1)[C@]1(C(=O)N2)[C@H](c2ccc(OCCO)cc2)N2[C@H](c3ccccc3)[C@H](c3ccccc3)OC(=O)[C@H]2[C@@H]1C(N)=O)C(=O)OC | 1.4
* O=C1c2ccccc2[C@](Cc2ccccc2I)(C(=O)NCCN2CCOCC2)[C@H](c2ccc(CO)cc2)N1Cc1ccccc1C(F)(F)F | 0.787
